Test system: diaphorase
method: fluorescently labeled diaphorase binding to peptide array with or without excess FAD
condition_details: ratio of binding without FAD to binding with FAD, 1 micromolar diaphorase
quantity: 1 microM noFAD/FAD

A selection of reference data follows.
EDEGLSKFEGGSG [array peptide with C-terminal GSG linker] | 0.1346
KNRPYNKDLEDGSG [array peptide with C-terminal GSG linker] | 0.1425
RAQYAQYLFGGSG [array peptide with C-terminal GSG linker] | 2.758

I. KEAPGPRFGGSG [array peptide with C-terminal GSG linker]
II. RYYPAFSGGSG [array peptide with C-terminal GSG linker]
// query Compare I and II and name the one whose reported 1 microM noFAD/FAD is smaller. Selection: enter the item's label.
// result I
